Cited source: the MegaScale stability set (Tsuboyama et al. 2023)

B1: EEHEE_rd3_0130 (parent)
chain: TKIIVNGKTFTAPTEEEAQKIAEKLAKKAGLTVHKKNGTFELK

# Variants of: B1
# procedure.text: folding stability dG (cDNA display proteolysis); higher = more stable
# assay.conditions: PBS, room temperature
For each of the variants below, state its folding stability dG.
Return type: number; implicit unit kcal/mol.

Exercise: Provide one value: measured folding stability dG of `T39P`
Key: 0.066

Exercise: Return the recorded folding stability dG value; entry: `L25F`
Key: 0.651

Exercise: For the variant `E15R` , report folding stability dG.
Key: 0.366

Exercise: State, in one line, measured folding stability dG of `A29I`
Key: 0.979

Exercise: Return folding stability dG (reported value) for this variant: `A18T`
Key: -0.68

Exercise: Report folding stability dG for `T14I`
Key: -0.354

Exercise: Identify measured folding stability dG associated with `K2N`
Key: 0.108

Exercise: Give the measured folding stability dG for `E16I`
Key: 0.723

Exercise: Report folding stability dG, nothing else, for this variant: `G38C`
Key: 0.297

Exercise: Provide measured folding stability dG value, entry: `N37Y`
Key: -0.556

Exercise: Note folding stability dG for the variant shown: `F40L`
Key: 0.724

Exercise: Supply measured folding stability dG of `K43R` in your reply.
Key: 1.07

Exercise: Give the reported value of folding stability dG for this record: `A29S`
Key: 0.857

Exercise: For the variant `A18C` , give its reported folding stability dG.
Key: 0.561

Exercise: State its folding stability dG for this variant: `T9R`
Key: -0.066

Exercise: Determine from records and report folding stability dG for `T9C`
Key: 1.66

Exercise: Please give measured folding stability dG of the following entry: `L25V`
Key: 0.245

Exercise: Please report folding stability dG for the following variant: `V33Q`
Key: -0.574

Exercise: For the variant `K27H` , give its reported folding stability dG.
Key: 0.537

Exercise: Specify reported folding stability dG for the variant shown: `N6A`
Key: 0.745

Exercise: Indicate the recorded folding stability dG value for this variant: `G38T`
Key: -0.511

Exercise: Supply reported folding stability dG belonging to this variant: `K20S`
Key: 0.688
